List of viability, T/C values.
Tested on: 556581-035-R-J1-PDC complex spheroid growth;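 note: spheroids exposed to agents for 7 days before viability read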
Assay name: Anticancer human tumor 556581-035-R-J1-PDC patient-derived ovarian carcinoma cell line growth inhibition [Asc]
Cond: second compound 0.316 µM; first compound 3.16 µM; active compounds read low
Kindly answer with a numeric value in %, unit omitted.

Some entries whose results are on file:
{"columns": ["Molecule", "Tested target", "Unit", "Measured"],
 "data": [
  ["O=C(c1cc(Cc2n[nH]c(=O)c3ccccc23)ccc1F)N1CCN(C(=O)C2CC2)CC1 + Cc1c(S(C)(=O)=O)c(-c2cc(F)cc(N3CCN(c4ccc(NS(=O)(=O)c5ccc(NC(CCN6CCC(C(=O)OCCCP(=O)(O)O)CC6)CSc6ccccc6)c(S(=O)(=O)C(F)(F)F)c5)cc4)CC3)c2)c(-c2ccc(Cl)cc2)n1C(C)C", "556581-035-R-J1-PDC complex spheroid growth", "%", 83.4],
  ["C=CC(=O)N1CCN(c2nc(=O)n(-c3c(C)ccnc3C(C)C)c3nc(-c4c(O)cccc4F)c(F)cc23)C(C)C1 (centres undefined) + CNC(C)C(=O)NC1CN(S(=O)(=O)c2cccc(S(=O)(=O)N3CCC4CCC(C(=O)NC(c5ccccc5)c5ccccc5)N4C(=O)C(NC(=O)C(C)NC)C3)c2)CCC2CCC(C(=O)NC(c3ccccc3)c3ccccc3)N2C1=O", "556581-035-R-J1-PDC complex spheroid growth", "%", 78.9],
  ["O=C(c1cc(Cc2n[nH]c(=O)c3ccccc23)ccc1F)N1CCN(C(=O)C2CC2)CC1 + CNC(C)C(=O)NC1CN(S(=O)(=O)c2cccc(S(=O)(=O)N3CCC4CCC(C(=O)NC(c5ccccc5)c5ccccc5)N4C(=O)C(NC(=O)C(C)NC)C3)c2)CCC2CCC(C(=O)NC(c3ccccc3)c3ccccc3)N2C1=O", "556581-035-R-J1-PDC complex spheroid growth", "%", 50]
]}

Give the measured viability, T/C of C=C(F)C(=O)N1CCN(c2nc(OCC3CCCN3C)nc3c2CCN(c2cccc4cccc(Cl)c24)C3)CC1CC#N (centres undefined) + Cc1c(S(C)(=O)=O)c(-c2cc(F)cc(N3CCN(c4ccc(NS(=O)(=O)c5ccc(NC(CCN6CCC(C(=O)OCCCP(=O)(O)O)CC6)CSc6ccccc6)c(S(=O)(=O)C(F)(F)F)c5)cc4)CC3)c2)c(-c2ccc(Cl)cc2)n1C(C)C .
18.2
